From: patent US20110262454A1

Molecular target: human CD38 on cells (human, UniProt P28907 1-300)
Test: cell-based or functional assay
# maps each entry to its CDC EC50, Raji-IMG cells, human complement 5%
parameter_measured: CDC EC50, Raji-IMG cells, human complement 5% (µg/mL)

[[record]]
binder = "ch38SB31 chimeric anti-CD38 antibody (antibody, V domains shown, also called chimeric 38SB31) VH: DVKLVESGGGLVKPGGSLKLSCEASGFTFSSYTLSWVRQTPETRLEWVATISIGGRYTYYPDSVEGRFTISRDNAKNTLYLQMNSLKSEDTAMYYCTRDFNGYSDFWGQGTTLTVSS VL: DTVMTQSHKFISTSVGDRVSITCKASQVVGSAVAWYQQKPGQSPKLLIYWASTRHTGVPDRFTGSGSGTDFTLTISNVQSEDLADYFCQQYNSYPYTFGGGTKLEIKR"
recorded_number = 0.01

[[record]]
binder = "ch38SB18 chimeric anti-CD38 antibody (antibody, V domains shown) VH: QIQLVQSGPELKKPGETVKISCKASGYTFTNSGMNWVKQAPGKGLKWMGWINTYTGEPTYADDFKGRFAFSLETSASSAYLQISNLKNEDTATYFCARRGFVYWGQGTLVTVSA VL: DIVLTQSPASLAVSLGQRATISCRASESVAIYGNSFLKWFQQKPGQPPKLLIYRASNLESGIPARFSGSGSGTDFTLTINPVEADDVATYYCQQINEDPYTFGGGTKLEIKR"
recorded_number = 0.0101

[[record]]
binder = "ch38SB13 chimeric anti-CD38 antibody (antibody, V domains shown) VH: QIQLVQSGPELKKPGETVKISCKASGYTLTSYGMNWVKQAPGKGLKWMGWINTYTGEPTYADDFKGRFAFSLETSASTAFLQINNLKNEDTATYFCVRRGFAYWGQGTLVTVSA VL: NIVLTQSPASLAVSLGQRATISCRASESVEIYGNGFMNWFQQKPGQPPKLLIYRASNLESGIPARFSGSGSRTEFTLTIDPVEADDVATYYCQQINEDPFTFGSGTKLEIKR"
recorded_number = 0.005

[[record]]
binder = "ch38SB39 chimeric anti-CD38 antibody (antibody, V domains shown) VH: NVQLVESGGGLVQPGGSRKLSCAASGFTFSNFGMHWVRQAPEKGLEWVAYIRSGSGTIYYSDTVKGRFTISRDNPKNTLFLQMTSLRSEDTAMYYCARSYYDFGAWFAYWGQGTLVTVSA VL: DIVMTQSQKFMSTSVGDRVSVTCKASQNVGTNVAWYQHKPGQSPKIMIYSASSRYSGVPDRFTGSGSGTLFTLTINNVQSEDLAEYFCQQYNSYPLTFGSGTKLEIKR"
recorded_number = 0.4

[[record]]
binder = "ch38SB19 chimeric anti-CD38 antibody (antibody, V domains shown, also called chimeric 38SB19) VH: QVQLQQSGAELARPGTSVKLSCKASGYTFTDYWMQWVKQRPGQGLEWIGTIYPGDGDTGYAQKFKGKATLTADKSSKTVYMHLSSLASEDSAVYYCARGDYYGSNSLDYWGQGTSVTVSS VL: DIVMAQSHKFMSTSVGDRVSITCKASQDVSTVVAWYQQKPGQSPKRLIYSASYRYIGVPDRFTGSGSGTDFTFTISSVQAEDLAVYYCQQHYSPPYTFGGGTKLEIKR"
recorded_number = 0.028

[[record]]
binder = "ch38SB30 chimeric anti-CD38 antibody (antibody, V domains shown) VH: QVQLQQSGPELVRPGASVKISCKTSGYAFSGSWMNWVKQRPGQGLEWIGRIYPGDGDIIYNGNFRDKVTLSADKSSNTAYMQLSSLTSVDSAVYFCSRWGTFTPSFDYWGQGTTLTVSS VL: DIVMTQSHKFLSTSVGDRVSITCKASQDVVTAVAWFQQKPGQSPKLLIYSASHRYTGVPDRFTGSGSGTDFTFTIISVQAEDLAVYYCQQHYTTPTTFGGGTKLDFRR"
recorded_number = 0.02

